system: Plasmodium berghei; experiment: Screen against P. berghei liver stage (PbLuc), transformed with Luciferase, at 10uM; format: functional, HepG2; details: tested at 10 uM
About 8,600 (12%) of roughly 69,000 compounds showed an effect of 50% or more. The sample as a whole holds a higher share of strong results than the screen did.
quantityKind: INHIBITION (%)
Give bare numbers, in %.

As a guide, the following entries are already answered.
• CCn1cc(CN(C)S(=O)(=O)c2ccc(C)c(C)c2)cn1 = 10.1
• CCc1nccn1C1CCCN(C(=O)c2ccoc2C)C1 (stereo unspecified) = 21.6
• O[C@@H]1CN(Cc2ccc(F)c(F)c2)CC[C@H]1NCc1ccccn1 = 46.7

Quick request: INHIBITION for each listed item, please.
1. CC(C)CNC(=O)NC(=O)CNc1ccccc1SCC(C)C#N (stereo unspecified)
2. Cc1nn2cnnc2c(C)c1CCC(=O)Nc1nnc(C(C)C)s1
3. CC(=O)N1CCN(CC=C(C)C)CC1

1: -7.9; 2: -23.5; 3: 19.1

* * *

system: Plasmodium berghei; experiment: Screen against P. berghei liver stage (PbLuc), transformed with Luciferase, at 10uM; type: functional, HepG2; settings: tested at 10 uM
Screen size: about 69,000 compounds; about 8,600 (12%) showed an effect of 50% or more. Many of the other results were omitted from the sample, so strong results are more common in it than they were.
Hi, to clarify the labels: y covers INHIBITION from 10% upward, n covers anything below 10%.

Solved cases below.
• CCCN1CCc2nc(SCc3ccccc3)[nH]c(=O)c2C1 = y
• Cc1cc(CS(=O)(=O)C(C)c2ccc(F)cc2)on1 (stereo unspecified) = n
• Cc1ccc(CNCc2cccc3cccnc23)c(OC2CCOC2)c1 (stereo unspecified) = n

Tell me whether INHIBITION is at least 10% here: Cc1ccc(CNCc2cccc3cn[nH]c23)c(OC2CCOC2)c1 (stereo unspecified)
y

* * *

So I've got a bunch of compounds here, and I need their INHIBITION values.
tested on: Plasmodium berghei; experiment: Screen against P. berghei liver stage (PbLuc), transformed with Luciferase, at 10uM; type: functional, HepG2; details: tested at 10 uM
The campaign covered roughly 69,000 compounds. About 8,600 (12%) showed an effect of 50% or more. The sample holds strong results, similar compounds and a random draw of the others, so the mix is not that of the screen.
Answers are plain numbers, in %.

As a guide, the following entries are already answered.
• Cc1ccc(S(=O)(=O)N2C[C@H]3C[C@H](NC(=O)c4cc[nH]n4)[C@H]3C2)cc1 = 64.1
• CN(C)CC(=O)N1CCC2(CCc3cc(-c4cccnc4)ccc32)CC1 = 15.3
• Cc1cc(C)n(CC2CCCCN2C(=O)c2ccc3[nH]nnc3c2)n1 (stereo not given) = 20.9

Quick request: INHIBITION for each listed item, please.
1. CN(Cc1n[nH]c2c1CCC2)C(=O)c1cc(-c2cccn2C)n[nH]1
2. CCCN(CCC)C(=O)c1cnn(C)c1C

[-7.53, 51.3]

* * *

So I've got a bunch of compounds here, and I need their INHIBITION values.
test system: Plasmodium berghei; assay: Screen against P. berghei liver stage (PbLuc), transformed with Luciferase, at 10uM; assay type: functional, HepG2; settings: tested at 10 uM
Among all 69,000 compounds or so, about 8,600 (12%) showed an effect of 50% or more. This excerpt belongs to a sample that is enriched for strong results.
Answers are plain numbers, in %.

As a guide, the following entries are already answered.
- CCCOc1ccccc1C(N)CC(C)C (stereo not drawn): 80.9
- CC(C)N1CCC2(CCN(C(=O)c3cccnc3)CC2)C1: 15.4
- COc1cc(F)ccc1C(C(=O)O)N(C)CCN1CCCC1 (stereo not drawn): 40.9
- O=C(NCCc1ccccc1)N1C[C@@H]2C[C@H](C(=O)N3CCCC3)[C@H](C1)O2: 57.1
- Cc1nn(CC(=O)N(C)Cc2nncn2C(C)C)c(=O)c2ccccc12: -7.27
- Cc1ncsc1-c1nc(CC2CCN(C)CC2)nn1Cc1ccccc1: 47.5
- FC1(F)CCN(Cc2cccnc2)CC12CCN(c1cnccn1)C2 (stereo not drawn): -20.1
- Cc1cc(O)ncc1NS(=O)(=O)c1cccc(F)c1F: 69.9
- CS(=O)(=O)NC[C@]12COC[C@H]1CN(C(=O)N1CCCC1)C2: 21.3
- CCOc1ccccc1C(N)CC(C)C (stereo not drawn): 30.9

Quick request: INHIBITION for each listed item, please.
1. O=C(Nc1ccccc1OCCc1ccccn1)N1CCOCC1
2. Cc1nn(C)c2cnn(CC(=O)NCc3ccccc3F)c12
3. NC(=O)N1CCC2(CCN(C(=O)c3cccnc3)CC2)C1
4. Cc1cccc(NCc2nc(C)ccc2O)c1
5. Cn1ccnc1C(=O)NCc1cnc2n1CCN(CC1CC1)CC2
6. FC1(F)CCN(Cc2cccnc2)CC12CCN(c1ccccn1)C2 (stereo not drawn)

1. -98.1
2. 41.6
3. 86.5
4. 24.8
5. -24.1
6. 68.2

Quick request: INHIBITION for each listed item, please.
1. CCC(C)NC(=O)CCn1ccc(C)n1 (stereo not drawn)
2. O=C(c1ccoc1)N1CCC2(CC1)C(=O)Nc1ccccc12

1. -5.77
2. 25.4

* * *

test system: Plasmodium berghei; experiment: Screen against P. berghei liver stage (PbLuc), transformed with Luciferase, at 10uM; format: functional, HepG2; settings: tested at 10 uM
About 8,600 (12%) of roughly 69,000 compounds showed an effect of 50% or more. The list comes from a sample in which strong results are over-represented; it also holds close analogues and randomly drawn compounds.
So I've got a bunch of compounds here, and I need their INHIBITION values.
Numbers only, in %.

As a guide, the following entries are already answered.
- CCOc1ccc(S(=O)(=O)NCc2cccnc2N(C)C)cc1: 67.5
- CN(CCc1ccccn1)C(=O)Nc1cccnc1N1CCCC1: 44.7
- O=C(c1ccccc1)N1CC[C@H]2C[C@H](c3nnc(C4CC4)o3)O[C@@H]2C1: 38.5

Quick request: INHIBITION for each listed item, please.
1. COCC(=O)NCc1cc(=O)n2c(n1)CN(Cc1ccoc1)CCC2
2. c1ccc(N2CCCC2)c(NCc2ccncc2)c1
3. Cc1noc(C2CCCN(C(=O)c3cc(-c4ccccc4)on3)C2)n1 (stereo not given)
4. CSCCCN(CCN1CCOCC1)Cc1ccco1

[36.9, 75.7, 47.7, 45.8]

Quick request: INHIBITION for each listed item, please.
1. CCCC(C)CS(=O)(=O)NCc1cccnc1N(C)C (stereo not given)
2. O=C(c1ccoc1)N1CC[C@H]2C[C@@H](c3nnc(C4CC4)o3)O[C@@H]2C1
3. CN(C)[C@@H]1CCN(C(=O)Cc2cccs2)[C@H]1Cc1cnn(C)c1
4. COCCO[C@H]1CCN(Cc2cccs2)[C@H]1Cc1cccnc1
5. O=C(c1ccccc1)N1CC[C@H]2C[C@@H](c3nnc(C4CC4)o3)O[C@@H]2C1
6. CS(=O)(=O)N1C[C@H](NC(=O)c2ccno2)[C@@H]2OCCC[C@@H]21

1. -33.9
2. 35.8
3. -16.7
4. 32.7
5. 38.5
6. 38.5

Quick request: INHIBITION for each listed item, please.
1. CN(C)C(=O)COC1COC2(CCN(CC3CC3)CC2)C1 (stereo not given)
2. COCC(C)(C#N)NC(=O)c1cn(-c2cccc(Cl)c2F)nn1 (stereo not given)
3. CCC1CN(C(=O)c2ccc(O)cn2)CCC(=O)N1Cc1ccccc1 (stereo not given)
4. CCS(=O)(=O)Nc1ccc2oc(C)c(C(C)=O)c2c1
5. COc1ncccc1CNCc1c(C(C)C)nn(C)c1Cl
6. Cc1cc(=O)c(C(=O)N2CCN(C)c3ccccc3C2)c[nH]1
7. CN(C)S(=O)(=O)N1C[C@@H]2C[C@H](C(=O)Nc3ccccc3)[C@H](C1)O2

1. 37.6
2. 55.6
3. 66.8
4. 28.5
5. 21.7
6. 43.9
7. -22.5

* * *

So I've got a bunch of compounds here, and I need their INHIBITION values.
tested on: Plasmodium berghei; assay: Screen against P. berghei liver stage (PbLuc), transformed with Luciferase, at 10uM; type: functional, HepG2; conditions: tested at 10 uM
The campaign covered roughly 69,000 compounds. About 8,600 (12%) showed an effect of 50% or more. For the sample, strong results were picked, then their nearest neighbours and some compounds at random.
Numbers only, in %.

As a guide, the following entries are already answered.
* CCS(=O)(=O)N1CCC2(CCCN(Cc3ccc(F)c(F)c3)C2=O)C1 (stereo not drawn) | 39.4
* Cc1cccc(CN2CCCC3(CCN(C4CCSCC4)C3)C2=O)c1 (stereo not drawn) | 39.9
* Cc1cc(N(C)C)nc(C2COCCN2Cc2cc(C)on2)n1 (stereo not drawn) | 44.8
* COCCNC(=O)c1cc(OC)c2ccoc2c1 | 27.7
* CCn1nc(C)c(CN(CCCN(C)C)Cc2ccccn2)c1C | -37.4

Quick request: INHIBITION for each listed item, please.
1. Cc1cccc(CN2CCCC2c2cccc(Nc3nccs3)n2)c1 (stereo not drawn)
2. O=C1N(CCc2ccccc2)CCCC12CCN(C(CO)CO)C2 (stereo not drawn)
3. Cc1ccccc1CN1CCCC1c1cncc(Nc2nncs2)n1 (stereo not drawn)

[72, -33.9, 22]
